Reference source: patent US20240327502A1

Answer each item with its documented processed/unprocessed PreF trimer binding ratio.
# MEASUREMENT_TARGET: T1, Processed stabilized hMPV PreF trimer (115BV) (human metapneumovirus, strain B2)
# T1 construct: also called Processed hMPV PreF trimer; processed PreF
# MEASUREMENT_PROTOCOL: BLI, ratio to unprocessed PreF trimer
// keep it numeric: no unit symbol after the value

Q: # input binder: M2C11 (antibody, V domains shown, IgG) VH: QVQLVQSGAEVRKPGASVKVSCKASGYTFTSHDINWVRQAPGQGLEWMGWMNPNSDTTGYAQKFQGRVTMARDISMSTAYMELSSLTSEDTAVYYCARGRHNYYTNGPTRDGFDIWGQGTMVTVSS VL: SYELTQPPSVSVSPGQTATITCSGDDLGNQYANWFQQRPGQSPVLVIYQDNKRPSGIPERFSGSSSGNTATLTISGTQPLDEADYYCQAWDSRTYVFGTGTKVTVL ; wanted: its processed/unprocessed PreF trimer binding ratio
Result: 1.04

Q: # input binder: M1C7 (antibody, V domains shown, IgG; also called MIC7) VH: QVQLVESGGGLVQPGRSLRLSCAASGFTFSSYAMHWVRQAPGKGLEWVAIITYDGSGKYYADSLEGRITISRDDPKSMLYLHMRSLTAEDTAVYYCVKSGSFSSAFWLEDWGQGTLVTVSS VL: EIVLTQSPATLSLSPGERATLSCRASQSISNFVAWYQQKPGQAPRLLIYDASNGATGTPARFSGSGSGTDFTLTISSLEPEDFAVYYCQQRSTWTFGQGTKVEIKR ; wanted: its processed/unprocessed PreF trimer binding ratio
Result: 1.15
